// data source = patent US20240391948A1

System: U937 cells (human monocytic cell line)
Experiment: BzATP-induced IL-1β secretion inhibition in PMA-differentiated U937 cells
Assay type: cell-based
Conditions: U-937, U937 cells differentiated with PMA, read-out: IL-1β production inhibition grade (IC50)
pIC50: −log10 of the molar value.
This listing pairs molecules with measured pIC50.
METRIC_NAME: pIC50

{"CHEMICAL_SMILES": "C[C@H](CCC(=O)N1CCC[C@H](S(=O)(=O)O)C1)[C@H]1CC[C@H]2[C@@H]3[C@H](O)C[C@@H]4C[C@H](O)CC[C@]4(C)[C@H]3C[C@H](O)[C@]12C", "MEASURED_ON": "U937 cells (human monocytic cell line)", "METRIC_NAME": "pIC50", "RESULT": "> 7.30"}
{"CHEMICAL_SMILES": "CC(C)N(CCS(=O)(=O)O)C(=O)CC[C@@H](C)[C@H]1CC[C@H]2[C@@H]3CC[C@@H]4C[C@H](O)CC[C@]4(C)[C@H]3CC[C@]12C", "MEASURED_ON": "U937 cells (human monocytic cell line)", "METRIC_NAME": "pIC50", "RESULT": "> 7.30"}
{"CHEMICAL_SMILES": "CC(C)[C@@H](CS(=O)(=O)O)NC(=O)CC[C@@H](C)[C@H]1CC[C@H]2[C@@H]3CC[C@@H]4C[C@H](O)CC[C@]4(C)[C@H]3CC[C@]12C", "MEASURED_ON": "U937 cells (human monocytic cell line)", "METRIC_NAME": "pIC50", "RESULT": "> 7.30"}
{"CHEMICAL_SMILES": "C[C@H](CCC(=O)N(C)CCS(=O)(=O)O)[C@H]1CC[C@H]2[C@@H]3CC[C@@H]4C[C@H](O)CC[C@]4(C)[C@H]3C[C@H](O)[C@]12C", "MEASURED_ON": "U937 cells (human monocytic cell line)", "METRIC_NAME": "pIC50", "RESULT": "≤ 6.70"}
{"CHEMICAL_SMILES": "C[C@H](CCC(=O)N(CCO)CCS(=O)(=O)O)[C@H]1CC[C@H]2[C@@H]3CC[C@@H]4CC(=O)CC[C@]4(C)[C@H]3CC[C@]12C", "MEASURED_ON": "U937 cells (human monocytic cell line)", "METRIC_NAME": "pIC50", "RESULT": "≤ 6.70"}
{"CHEMICAL_SMILES": "CC[C@H]1[C@@H](O)[C@@H]2[C@H](C[C@H](O)[C@]3(C)[C@@H]([C@H](C)CCC(=O)N[C@H]4CCCC[C@H]4S(=O)(=O)O)CC[C@@H]23)[C@@]2(C)CC[C@@H](O)C[C@@H]12", "MEASURED_ON": "U937 cells (human monocytic cell line)", "METRIC_NAME": "pIC50", "RESULT": "≤ 6.70"}
{"CHEMICAL_SMILES": "C[C@H](CCC(=O)N1CCC(CCS(=O)(=O)O)CC1)[C@H]1CC[C@H]2[C@@H]3CC[C@@H]4C[C@H](O)CC[C@]4(C)[C@H]3C[C@H](O)[C@]12C", "MEASURED_ON": "U937 cells (human monocytic cell line)", "METRIC_NAME": "pIC50", "RESULT": "> 7.30"}

----------
Test system: U937 cells (human monocytic cell line)
Assay: BzATP-induced IL-1β secretion inhibition in PMA-differentiated U937 cells
Assay type: cell-based
Details: U-937, U937 cells differentiated with PMA, read-out: IL-1β production inhibition grade (IC50)
This listing pairs compounds with measured IC50.

{"COMPOUND": "C[C@H](CCC(=O)N1CCC(CCS(=O)(=O)O)CC1)[C@H]1CC[C@H]2[C@@H]3CC[C@@H]4C[C@H](O)CC[C@]4(C)[C@H]3CC[C@]12C [NC10012]", "IC50": "< 50 nM"}
{"COMPOUND": "CC[C@H]1[C@@H](O)[C@@H]2[C@H](C[C@H](O)[C@]3(C)[C@@H]([C@H](C)CCC(=O)N(CCS(=O)(=O)O)C4CCOCC4)CC[C@@H]23)[C@@]2(C)CC[C@@H](O)C[C@@H]12 [NC50008]", "IC50": "< 50 nM"}
{"COMPOUND": "C[C@H](CCC(=O)NCCOS(=O)(=O)O)[C@H]1CC[C@H]2[C@@H]3CC[C@@H]4C[C@H](O)CC[C@]4(C)[C@H]3CC[C@]12C [NC10013]", "IC50": "50 to 100 nM"}
{"COMPOUND": "C[C@H](CCC(=O)N1CC(S(=O)(=O)O)C1)[C@H]1CC[C@H]2[C@@H]3CC[C@@H]4C[C@H](O)CC[C@]4(C)[C@H]3CC[C@]12C [NC10063]", "IC50": "< 50 nM"}
{"COMPOUND": "CC[C@H]1[C@@H](O)[C@@H]2[C@H](C[C@H](O)[C@]3(C)[C@@H]([C@H](C)CCC(=O)N[C@@H](C)CS(=O)(=O)O)CC[C@@H]23)[C@@]2(C)CC[C@@H](O)C[C@@H]12 [NC50028]", "IC50": "≥ 200 nM"}
{"COMPOUND": "C[C@H](CCC(=O)N[C@H](Cc1ccccc1)CS(=O)(=O)O)[C@H]1CC[C@H]2[C@@H]3CC[C@@H]4C[C@H](O)CC[C@]4(C)[C@H]3CC[C@]12C [NC10071]", "IC50": "< 50 nM"}
{"COMPOUND": "CC(C)[C@H](CS(=O)(=O)O)NC(=O)CC[C@@H](C)[C@H]1CC[C@H]2[C@@H]3CC[C@@H]4C[C@H](O)CC[C@]4(C)[C@H]3C[C@H](O)[C@]12C [NC10033]", "IC50": "100 to 200 nM"}
{"COMPOUND": "C[C@H](CCC(=O)N1CCC(S(=O)(=O)O)CC1)[C@H]1CC[C@H]2[C@@H]3CC[C@@H]4CC(=O)CC[C@]4(C)[C@H]3CC[C@]12C [NC30011]", "IC50": "≥ 200 nM"}

----------
Test system: J774A.1 (Mouse BALB/c monocyte macrophage cell line) cells
Experiment: LPS-induced TNF-α secretion inhibition in J774A.1 cells
Type: cell-based
Settings: J774.A1, 1 μM compound, graded compared to taurodeoxycholic acid (positive control), read-out: TNF-α production inhibition grade

{"CHEMICAL_SMILES": "C[C@H](CCC(=O)NC(C)(C)CS(=O)(=O)O)[C@H]1CC[C@H]2[C@@H]3CC[C@@H]4C[C@H](O)CC[C@]4(C)[C@H]3C[C@H](O)[C@]12C", "inhibition at 1 µM": "< 20%"}
{"CHEMICAL_SMILES": "C[C@H](CCC(=O)N1CCC[C@H](S(=O)(=O)O)C1)[C@H]1CC[C@H]2[C@@H]3CC[C@@H]4C[C@H](O)CC[C@]4(C)[C@H]3C[C@H](O)[C@]12C", "inhibition at 1 µM": "< 20%"}
{"CHEMICAL_SMILES": "C[C@H](CCC(=O)N[C@H](Cc1ccccc1)CS(=O)(=O)O)[C@H]1CC[C@H]2[C@@H]3CC[C@@H]4C[C@H](O)CC[C@]4(C)[C@H]3CC[C@]12C", "inhibition at 1 µM": "< 20%"}
{"CHEMICAL_SMILES": "CC(C)[C@@H](CS(=O)(=O)O)NC(=O)CC[C@@H](C)[C@H]1CC[C@H]2[C@@H]3[C@H](O)C[C@@H]4C[C@H](O)CC[C@]4(C)[C@H]3C[C@H](O)[C@]12C", "inhibition at 1 µM": "< 20%"}
{"CHEMICAL_SMILES": "C[C@H](CCC(=O)N(CCN(C)C)CCS(=O)(=O)O)[C@H]1CC[C@H]2[C@@H]3[C@H](O)C[C@@H]4C[C@H](O)CC[C@]4(C)[C@H]3C[C@H](O)[C@]12C", "inhibition at 1 µM": "< 20%"}
{"CHEMICAL_SMILES": "C[C@H](CCC(=O)N(CCS(=O)(=O)O)C1CCOCC1)[C@H]1CC[C@H]2[C@@H]3CC[C@@H]4CC(=O)CC[C@]4(C)[C@H]3CC[C@]12C", "inhibition at 1 µM": "< 20%"}
{"CHEMICAL_SMILES": "C[C@H](CCC(=O)NC1(CS(=O)(=O)O)CC1)[C@H]1CC[C@H]2[C@@H]3CC[C@@H]4C[C@H](O)CC[C@]4(C)[C@H]3C[C@H](O)[C@]12C", "inhibition at 1 µM": "< 20%"}
{"CHEMICAL_SMILES": "C[C@H](CCC(=O)N[C@@H]1CCCC[C@@H]1S(=O)(=O)O)[C@H]1CC[C@H]2[C@@H]3CC[C@@H]4C[C@H](O)CC[C@]4(C)[C@H]3CC[C@]12C", "inhibition at 1 µM": "> 100%"}
{"CHEMICAL_SMILES": "C[C@H](CCC(=O)NCCOS(=O)(=O)O)[C@H]1CC[C@H]2[C@@H]3CC[C@@H]4C[C@H](O)CC[C@]4(C)[C@H]3CC[C@]12C", "inhibition at 1 µM": "< 20%"}
{"CHEMICAL_SMILES": "C[C@H](CCC(=O)N(C)CCS(=O)(=O)O)[C@H]1CC[C@H]2[C@@H]3CC[C@@H]4CC(=O)CC[C@]4(C)[C@H]3CC[C@]12C", "inhibition at 1 µM": "20 to 50%"}
{"CHEMICAL_SMILES": "C[C@H](CCC(=O)N[C@H](Cc1ccccc1)CS(=O)(=O)O)[C@H]1CC[C@H]2[C@@H]3CC[C@@H]4CC(=O)CC[C@]4(C)[C@H]3CC[C@]12C", "inhibition at 1 µM": "< 20%"}
{"CHEMICAL_SMILES": "CC(C)C[C@@H](CS(=O)(=O)O)NC(=O)CC[C@@H](C)[C@H]1CC[C@H]2[C@@H]3CC[C@@H]4C[C@H](O)CC[C@]4(C)[C@H]3C[C@H](O)[C@]12C", "inhibition at 1 µM": "< 20%"}
